# Target: 3T3-L1 adipocytes (Mus musculus, UniProt P16092+Q99N32)
# Sequence (Q99N32 whole entry): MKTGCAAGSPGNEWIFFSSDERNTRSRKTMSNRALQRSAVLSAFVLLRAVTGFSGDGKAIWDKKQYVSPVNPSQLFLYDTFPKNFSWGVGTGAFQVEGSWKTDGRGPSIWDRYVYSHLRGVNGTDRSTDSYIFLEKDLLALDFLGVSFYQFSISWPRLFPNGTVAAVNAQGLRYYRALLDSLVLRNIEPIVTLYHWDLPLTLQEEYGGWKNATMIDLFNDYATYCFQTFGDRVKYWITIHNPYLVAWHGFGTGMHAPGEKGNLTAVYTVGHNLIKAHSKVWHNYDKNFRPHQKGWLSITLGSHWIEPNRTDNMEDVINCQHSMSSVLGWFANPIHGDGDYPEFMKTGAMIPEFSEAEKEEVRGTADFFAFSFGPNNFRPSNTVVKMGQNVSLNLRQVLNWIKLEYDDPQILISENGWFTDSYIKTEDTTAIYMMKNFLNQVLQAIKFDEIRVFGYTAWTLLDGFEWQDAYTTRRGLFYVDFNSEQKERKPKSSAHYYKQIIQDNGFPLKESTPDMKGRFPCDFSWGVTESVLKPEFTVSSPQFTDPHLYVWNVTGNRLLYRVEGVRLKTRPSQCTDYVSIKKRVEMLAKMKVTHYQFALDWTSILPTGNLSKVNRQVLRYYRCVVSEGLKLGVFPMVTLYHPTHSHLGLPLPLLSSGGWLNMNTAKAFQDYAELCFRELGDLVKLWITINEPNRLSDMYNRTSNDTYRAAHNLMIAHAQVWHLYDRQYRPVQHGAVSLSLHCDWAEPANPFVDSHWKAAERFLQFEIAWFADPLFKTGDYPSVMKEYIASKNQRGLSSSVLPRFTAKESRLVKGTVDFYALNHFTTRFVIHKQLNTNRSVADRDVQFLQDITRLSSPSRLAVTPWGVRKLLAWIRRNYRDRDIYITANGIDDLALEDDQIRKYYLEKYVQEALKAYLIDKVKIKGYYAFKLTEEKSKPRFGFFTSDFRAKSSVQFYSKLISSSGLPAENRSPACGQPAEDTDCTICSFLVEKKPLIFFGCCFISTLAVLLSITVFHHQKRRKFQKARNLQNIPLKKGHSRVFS
# Sequence (P16092 22-822): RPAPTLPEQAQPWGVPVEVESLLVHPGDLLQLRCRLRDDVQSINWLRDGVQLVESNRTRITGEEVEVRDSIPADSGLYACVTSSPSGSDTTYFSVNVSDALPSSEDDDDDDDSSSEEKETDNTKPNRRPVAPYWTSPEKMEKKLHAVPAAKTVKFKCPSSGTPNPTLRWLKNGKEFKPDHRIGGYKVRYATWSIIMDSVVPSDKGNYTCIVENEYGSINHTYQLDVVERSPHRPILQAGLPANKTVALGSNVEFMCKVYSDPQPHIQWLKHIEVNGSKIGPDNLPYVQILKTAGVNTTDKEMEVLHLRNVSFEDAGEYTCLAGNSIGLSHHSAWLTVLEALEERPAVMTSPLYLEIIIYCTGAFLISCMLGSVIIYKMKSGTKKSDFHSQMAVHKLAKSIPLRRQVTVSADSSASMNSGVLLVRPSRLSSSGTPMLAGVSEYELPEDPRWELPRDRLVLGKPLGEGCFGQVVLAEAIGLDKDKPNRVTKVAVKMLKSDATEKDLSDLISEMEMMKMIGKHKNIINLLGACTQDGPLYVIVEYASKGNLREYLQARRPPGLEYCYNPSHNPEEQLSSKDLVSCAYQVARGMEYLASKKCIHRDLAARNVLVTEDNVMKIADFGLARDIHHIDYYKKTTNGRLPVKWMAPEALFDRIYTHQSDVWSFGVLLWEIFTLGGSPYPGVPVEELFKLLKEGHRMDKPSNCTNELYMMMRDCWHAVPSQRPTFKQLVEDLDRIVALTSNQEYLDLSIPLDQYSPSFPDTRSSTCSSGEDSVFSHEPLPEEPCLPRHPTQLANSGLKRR
# Test description: Glucose uptake in 3T3-L1 adipocytes
# Type: cell-based
# Test settings: stimulated 20 hours, 3H-deoxy-glucose
Assign EC50 to each entry below.
Kindly answer with a numeric value in nM, unit omitted.

// fetch EC50 given entry S{Beta-180}-[2-[2-[[2-[2-[2-[[2-[2-[2-[[(4S)-4-carboxy-4-(19-carboxynonadecanoyl-amino)butanoyl]amino]ethoxy]ethoxy]acetyl]amino]ethoxy]ethoxy]acetyl]amino]-ethylamino]-2-oxoethyl]-Ala[Gln121,Leu168,C … (protein) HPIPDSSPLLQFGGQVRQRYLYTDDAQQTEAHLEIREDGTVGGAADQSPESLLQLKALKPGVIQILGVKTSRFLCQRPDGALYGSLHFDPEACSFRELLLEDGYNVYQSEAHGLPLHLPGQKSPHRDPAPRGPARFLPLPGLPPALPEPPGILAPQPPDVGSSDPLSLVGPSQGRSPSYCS 24

Retrieve EC50 measured for S{Beta-181}-[2-[2-[[2-[2-[2-[[2-[2-[2-[[(4S)-4-carboxy-4-(13-carboxytridecanoyl-amino)butanoyl]amino]ethoxy]ethoxy]acetyl]amino]ethoxy]ethoxy]acetyl]amino]-ethylamino]-2-oxoethyl]-Ala[Gln121,Leu168,Cy … (protein) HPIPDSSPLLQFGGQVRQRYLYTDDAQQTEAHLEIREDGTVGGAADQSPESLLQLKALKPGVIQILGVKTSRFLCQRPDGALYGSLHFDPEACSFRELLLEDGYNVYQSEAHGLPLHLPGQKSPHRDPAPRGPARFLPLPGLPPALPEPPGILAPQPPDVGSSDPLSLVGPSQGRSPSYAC and print it. 7.2

Fill in EC50 for record S{Beta-181}-2-aminoethylsulfanyl-Ala[Gln121, Leu168, Cys181]FGF21 (protein, N-terminal Ala; cysteamine disulfide on Cys181) AHPIPDSSPLLQFGGQVRQRYLYTDDAQQTEAHLEIREDGTVGGAADQSPESLLQLKALKPGVIQILGVKTSRFLCQRPDGALYGSLHFDPEACSFRELLLEDGYNVYQSEAHGLPLHLPGQKSPHRDPAPRGPARFLPLPGLPPALPEPPGILAPQPPDVGSSDPLSLVGPSQGRSPSYAC 5

Supply recorded EC50 for S{Beta-176}-2-aminoethylsulfanyl-Ala[Gln121, Leu168, Cys176]FGF21 (protein, cysteamine-protected Cys176) AHPIPDSSPLLQFGGQVRQRYLYTDDAQQTEAHLEIREDGTVGGAADQSPESLLQLKALKPGVIQILGVKTSRFLCQRPDGALYGSLHFDPEACSFRELLLEDGYNVYQSEAHGLPLHLPGQKSPHRDPAPRGPARFLPLPGLPPALPEPPGILAPQPPDVGSSDPLSLVGPSQGRCPSYAS here. 73

Find the measured EC50 of S{Beta-178}-2-aminoethylsulfanyl-Ala[Gln121, Leu168, Cys178]FGF21 (protein, N-terminal Ala; cysteamine disulfide on Cys178) AHPIPDSSPLLQFGGQVRQRYLYTDDAQQTEAHLEIREDGTVGGAADQSPESLLQLKALKPGVIQILGVKTSRFLCQRPDGALYGSLHFDPEACSFRELLLEDGYNVYQSEAHGLPLHLPGQKSPHRDPAPRGPARFLPLPGLPPALPEPPGILAPQPPDVGSSDPLSLVGPSQGRSPCYAS and report it. 50

// fetch EC50 given entry S{Beta-179}-[2-[2-[[2-[2-[2-[[2-[2-[2-[[(4S)-4-carboxy-4-(15-carboxypentadecanoyl-amino)butanoyl]amino]ethoxy]ethoxy]acetyl]amino]ethoxy]ethoxy]acetyl]amino]-ethylamino]-2-oxoethyl]-Ala[Gln121,Leu168, … (protein) HPIPDSSPLLQFGGQVRQRYLYTDDAQQTEAHLEIREDGTVGGAADQSPESLLQLKALKPGVIQILGVKTSRFLCQRPDGALYGSLHFDPEACSFRELLLEDGYNVYQSEAHGLPLHLPGQKSPHRDPAPRGPARFLPLPGLPPALPEPPGILAPQPPDVGSSDPLSLVGPSQGRSPSCAS 107

Note down EC50 recorded for S{Beta-181}-[2-[2-[[2-[2-[2-[[2-[2-[2-[[(4S)-4-carboxy-4-(19-carboxynonadecanoyl-amino)butanoyl]amino]ethoxy]ethoxy]acetyl]amino]ethoxy]ethoxy]acetyl]amino]-ethylamino]-2-oxoethyl]-Ala[Gln121,Leu168,C … (protein) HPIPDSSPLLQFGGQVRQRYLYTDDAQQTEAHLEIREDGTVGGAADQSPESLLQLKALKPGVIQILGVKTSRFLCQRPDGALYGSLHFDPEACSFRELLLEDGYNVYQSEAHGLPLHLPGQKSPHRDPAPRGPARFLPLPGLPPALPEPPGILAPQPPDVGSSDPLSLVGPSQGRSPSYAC 410

Write down EC50 measured for item S{Beta-180}-[2-[2-[[2-[2-[2-[[2-[2-[2-[[(4S)-4-carboxy-4-(15-carboxypentadecanoyl-amino)butanoyl]amino]ethoxy]ethoxy]acetyl]amino]ethoxy]ethoxy]acetyl]amino]-ethylamino]-2-oxoethyl]-Ala[Gln121,Leu168, … (protein) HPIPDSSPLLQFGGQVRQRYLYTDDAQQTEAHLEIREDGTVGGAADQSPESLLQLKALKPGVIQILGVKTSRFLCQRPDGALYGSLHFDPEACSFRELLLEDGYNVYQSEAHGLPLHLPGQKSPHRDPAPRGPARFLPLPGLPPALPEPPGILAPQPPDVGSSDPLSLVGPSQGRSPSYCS 9.1
